B1: FANCE (parent)
chain: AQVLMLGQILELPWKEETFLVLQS

# Variants of: B1
# Assay procedure: protein stability index of a GFP-peptide fusion (GPS, HEK-293T) (PSI 1-6); higher = more stable;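 further: lentivirally expressed fusions sorted by FACS into six bins by GFP to DsRed ratio, PSI derived from sequencing read proportions per bin multiplied by bin number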
# Test parameters: c terminus: a fixed tail appended
Readout type: protein stability index
// no unit string in output, number only

{"Chain": "AQVLMLGQIFELPWKEETFLVLQS", "protein stability index": 3.56}
{"Chain": "AQVLMLGQILELPPKEETFLVLQS", "protein stability index": 1.83}
{"Chain": "AIVLMLGQILELPWKEETFLVLQS", "protein stability index": 3.13}
{"Chain": "AQVLMLGQILELPWKEETSLVLQS", "protein stability index": 1.75}
{"Chain": "AQILMLGQILELPWKEETFLVLQS", "protein stability index": 2.75}
{"Chain": "AQVLMLGQILELPDKEETFLVLQS", "protein stability index": 1.58}

Prompt: Find the recorded protein stability index belonging to AQVLMLGQILELPWKEETFLVLNS and report it.
Completion: 2.44

Prompt: Find the recorded protein stability index belonging to AQVLMLGQILLLPWKEETFLVLQS and report it.
Completion: 1.81

meta.source: the supplement of paper PMC10567573
